# TEST SYSTEM: T1, PUF4 RNA-binding domain (Saccharomyces cerevisiae, UniProt P25339 537-888)
# T1 sequence: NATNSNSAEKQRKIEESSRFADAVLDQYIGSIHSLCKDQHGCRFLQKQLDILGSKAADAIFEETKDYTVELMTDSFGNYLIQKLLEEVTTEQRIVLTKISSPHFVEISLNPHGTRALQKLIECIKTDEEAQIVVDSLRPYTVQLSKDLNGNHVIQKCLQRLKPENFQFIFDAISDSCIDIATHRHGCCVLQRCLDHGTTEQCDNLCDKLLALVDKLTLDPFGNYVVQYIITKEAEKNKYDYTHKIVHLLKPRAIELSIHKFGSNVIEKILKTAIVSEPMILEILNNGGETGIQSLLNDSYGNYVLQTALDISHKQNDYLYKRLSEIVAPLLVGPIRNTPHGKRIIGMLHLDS
# PROCEDURE SUMMARY: Mg; RNA-MaP; 20 mM Na-HEPES pH 7.4, 30 mM KOAc, 0.75 mM MgCl2, 0.1% Tween-20, 5% glycerol, 0.1 mg/mL BSA, 2 mM DTT; 25 C; 0.0125-409.6 nM protein
# CONDITION: tags: N-His6-TEV cleaved; C-SNAP kept, Cy3B-labelled; label: tethered on chip by stalled RNA polymerase
pKd: −log10 of the molar value.
true (1) means recorded pKd is 7 or above; false (0) means it is below 7.

Tell me whether pKd is at least 7 here: UCUCUUUGUAUUCCCUUCUCUU (ssRNA) [Ic_S1_P5E.1_K5.1_C5.1_H5.1_A5.1_[A7C]_F5.1_[T8C]_[T9C]_[A10T]_T5.1] false (0)

Tell me whether pKd is at least 7 here: Id_ii_S2_P4E.4_K4.3_C4.2_[C-2G]_[T-1C]_H4.3_A4.1_F4.1_T4.2 (ssRNA) RNA: UUUGAUUAAUAUGAUAUCGUUCUUUCUGCACACUAUUAGUUUCUUUCUCGAUAUCAUAUUAAUCUUU false (0)

Tell me whether pKd is at least 7 here: ACAAACACACACUAUUAACACAAAC (ssRNA) [Id_ii_S3_P4E.4_K4.3_C4.2_[C-2A]_[T-1C]_H4.3_A4.1_F4.1_T4.2_[G10A]_[T11C]] false (0)

Tell me whether pKd is at least 7 here: Id_ii_S2_P5E.4_K5.3_C5.2_[C-2G]_[T-1C]_H5.3_A5.1_F5.1_T5.2_[T11C]_[A12T] (ssRNA) RNA: UUUGAUUAAUAUGAUAUCGUUCUUUCUGCACACUUAUUACUUUCUUUCUCGAUAUCAUAUUAAUCUUU false (0)

Tell me whether pKd is at least 7 here: ACAAACACUAUAUAUACCACAAAC (ssRNA) [Id_ii_S3_P3E.3_K3.2_C3.2_[C-2A]_[T-1C]_H3.2_A3.1_F3.1_T3.2_[T9C]_[A10C]] false (0)

Tell me whether pKd is at least 7 here: Ib_S4_P3E.1_K3.1_C3.1_H3.1_[G2C]_A3.1_F3.1_[T7A]_T3.1 (ssRNA) RNA: UUUGACAACUGAUCGUUCUUUCUUCUAUAAAUUCUUUCUCGAUCAGUUGUCUUU false (0)

Tell me whether pKd is at least 7 here: Id_ii_S4_P4E.2_K4.1_C4.2_[C-2G]_[T-1C]_H4.1_A4.1_F4.1_T4.2_[G10T] (ssRNA) RNA: UUUGACAACUGAUCGUUCUUUCUGCUGUAUAUUAUUUUCUUUCUCGAUCAGUUGUCUUU true (1)

Tell me whether pKd is at least 7 here: UCUCUUAUACACUUAUUAUAUCUCUU (ssRNA) [Id_ii_S1_P5E.4_K5.3_C5.2_[C-2A]_H5.3_A5.1_F5.1_T5.2] false (0)

Tell me whether pKd is at least 7 here: Ie_S2_P5E.1_K5.1_C5.1_H5.1_A5.1_[+7TC]_F5.1_T5.1 (ssRNA) RNA: UUUGAUUAAUAUGAUAUCGUUCUUUCUUGUAUUAUCUUAUUCUUUCUCGAUAUCAUAUUAAUCUUU true (1)

Tell me whether pKd is at least 7 here: UCUCUUCUUGUUAUAUAUAUCUCUU (ssRNA) [Ie_S1_P3E.2_K3.1_C3.2_H3.1_[+2T]_A3.1_F3.1_T3.2] true (1)

Tell me whether pKd is at least 7 here: UCUCUUUGUGUAUAUUAGUUCUCUU (ssRNA) [Id_ii_S1_P4E.2_K4.1_C4.2_[C-2T]_[T-1G]_H4.1_A4.1_F4.1_T4.2] true (1)

Tell me whether pKd is at least 7 here: UCUCUUUGUUCUCAUUAUUAUCUCUU (ssRNA) [Ie_S1_P5E.1_K5.1_C5.1_H5.1_[+3TCTC]_A5.1_F5.1_T5.1] false (0)

Tell me whether pKd is at least 7 here: UCUCUUUGUUUAUCAUCUCUU (ssRNA) [Ib_S1_P4E.1_K4.1_C4.1_H4.1_[A4T]_A4.1_F4.1_[T8C]_T4.1] false (0)

Tell me whether pKd is at least 7 here: Ie_S4_P3E.2_K3.1_C3.2_H3.1_[+2TCTCT]_A3.1_F3.1_T3.2 (ssRNA) RNA: UUUGACAACUGAUCGUUCUUUCUCUUGUCUCUUAUAUAUAUUCUUUCUCGAUCAGUUGUCUUU true (1)

Tell me whether pKd is at least 7 here: Ic_S2_P4E.1_K4.1_C4.1_H4.1_A4.1_[T7G]_F4.1_[T8C]_[A9C]_T4.1 (ssRNA) RNA: UUUGAUUAAUAUGAUAUCGUUCUUUCUUGUAUAGCCUUCUUUCUCGAUAUCAUAUUAAUCUUU true (1)

Tell me whether pKd is at least 7 here: UCUCUUCUUUCCUUGUAUAUAUAUCUCUU (ssRNA) [Ie_S1_P3E.2_K3.1_C3.2_[+-1TTCCT]_H3.1_A3.1_F3.1_T3.2] true (1)

Tell me whether pKd is at least 7 here: UCUCUUCGUAUUAUUCUCUCUU (ssRNA) [Ib_S1_P5E.1_K5.1_C5.1_H5.1_[T1C]_A5.1_F5.1_[A10C]_T5.1] false (0)

Tell me whether pKd is at least 7 here: UCUCUUAUACACUUAUUAUCUCUCUU (ssRNA) [Id_ii_S1_P5E.4_K5.3_C5.2_[C-2A]_H5.3_A5.1_F5.1_T5.2_[A12C]] false (0)

Tell me whether pKd is at least 7 here: Ic_S4_P4E.1_K4.1_C4.1_H4.1_A4.1_[T5A]_[A6T]_F4.1_[T8G]_[A9C]_T4.1 (ssRNA) RNA: UUUGACAACUGAUCGUUCUUUCUUGUAAUUGCUUCUUUCUCGAUCAGUUGUCUUU false (0)

Tell me whether pKd is at least 7 here: UCUCUUUGUAUAUAUUCUCUU (ssRNA) [Ic_S1_P4E.1_K4.1_C4.1_H4.1_A4.1_F4.1_[T8A]_[A9T]_T4.1] true (1)

Tell me whether pKd is at least 7 here: UCUCUUCGACACUUAUUAAAUCUCUU (ssRNA) [Id_ii_S1_P5E.4_K5.3_C5.2_[T-1G]_H5.3_A5.1_F5.1_T5.2_[T11A]] false (0)
